This collection of values is drawn from patent US11447472B2.

assay: in vivo; conditions: male, SD, rat, po, 2 mg/kg, AUClast, individual rat
measured property: AUC(0-t) (µg·h/mL)
Reply numerically in µg·h/mL, unit not repeated.

The compound listed as Nc1ncn([C@H]2C[C@H](O)[C@@H](CO)S2)c(=O)n1 [Form F, 5-Aza-4′-thio-2′-deoxycytidine] has a reported AUC(0-t) of 6.18

====

experiment: Thermodynamic solubility, shake-flask method; assay type: physicochemical; conditions: organic solvent or mixture, thermodynamic from solid; Methyl ethyl ketone; RT, 24 hours
measured property: solubility at 24 h

The compound listed as `Nc1ncn([C@H]2C[C@H](O)[C@@H](CO)S2)c(=O)n1` has a reported solubility at 24 h of < 100 µg/mL
